Entries and their measured growth follow.
Test system: LOX IMVI melanoma
TEST METHOD NOTES: NCI-60 one-dose screen, 48 h (100 = growth as untreated, 0 = no growth, -100 = all killed)
CONDITION DETAILS: 10 µM unless noted
This is part of a sample that, as a whole, favours compounds with a hit. Of some 83,000 tested, about 20% had one in any assay. Calls of active or inactive are those of the source. Rule for the calls: active = growth percent below 10; inactive = the rest.
MEASURED PARAMETER: growth

COMPOUND | MEASURED PARAMETER | ENDPOINT RESULT
COc1cc2nccc(Oc3ccc(NC(=O)Nc4cc(C)on4)c(Cl)c3)c2cc1OC | growth | -2.96% (active)
COc1cc(C2CC(c3ccc(Cl)cc3)=NN2c2ccc(Cl)cc2)cc(OC)c1OC (centres undefined) | growth | 99.8% (inactive)
FC(F)c1nc2ccccc2n1-c1nc(N2CCOCC2)nc(N2CCOCC2)n1 | growth | -17.9% (active)
CC#CC(=O)N1CCC[C@H]1c1nc(-c2ccc(C(=O)Nc3ccccn3)cc2)c2c(N)nccn12 | growth | 93.7% (inactive)
CCN(CC)CCCC(C)Nc1cc(-c2ccc(C(F)(F)F)cc2)c(C#N)c2nc3ccccc3n12 (centres undefined) | growth | -80.6% (active)
CN1CCN(CCCOc2cccc3nc(Nc4ccc(Cl)c(C(F)(F)F)c4)ccc23)CC1 | growth | -95% (active)
CN1[C@@H]2CC[C@H]1/C(=C\c1ccccc1)C1=C2[C@@H](c2ccccc2)C(C#N)=C(N)O1 | growth | 97.8% (inactive)
COc1cccc(NC(=O)Nc2ccc(Nc3ncnc4sc5c(c34)CCN(C(=O)CCl)C5)cc2)c1 | growth | 94.1% (inactive)
N#Cc1c(-c2ccc(C(F)(F)F)cc2)cc(NCC2CCS(=O)(=O)CC2)n2c1nc1ccccc12 | growth | 77.5% (inactive)

* * *

Tested on: T-47D breast
TEST METHOD NOTES: NCI-60 one-dose screen, 48 h
CONDITION DETAILS: 10 µM unless noted
Compounds without any hit were thinned out: in the full panel of roughly 83,000, 20% have a hit. The source made the active and inactive calls. Rule for the calls: active = growth percent below 10; inactive = the rest.
Possible outcomes: T for active, F for inactive

COMPOUND | CLASSIFICATION
CCc1nc2cc(/C=C/C(=O)NO)ccc2c(=O)n1CCc1ccc(OC)cc1 | T
CCc1nc(C(N)=O)c(Nc2ccc(N3CCC(N4CCN(C)CC4)CC3)c(OC)c2)nc1NC1CCOCC1 | F
CC[C@H](CO)Nc1nc(NCc2ccccc2)c2ncn(C(C)C)c2n1 | F
Cn1cc(-c2[nH]c3cc(NC(=O)[C@H](N)C4CCCCC4)cc4c3c2C=NNC4=O)cn1 | T
O=C(Cc1ccc(-c2ccc(OCCN3CCOCC3)cc2)cn1)NCc1ccccc1 | F
CC1=CC2c3oc(-c4ccccc4)c(C(=O)c4ccccc4)c3CNC2C=C1 (centres undefined) | F
O=C(Cc1ccccc1)Nc1nnc(NC2CCN(c3nnc(NC(=O)Cc4ccccc4)s3)CC2)s1 | F
C=C1C(=O)O[C@H]2[C@H]1CC/C(Cn1cc(-c3cc(C)c(C)cc3C)nn1)=C\CC[C@@]1(C)O[C@@H]21 | T
CSc1nc2ncnc(SC)c2[nH]1 | F
Cc1cc(Nc2cc(N3CCN(C)CC3)nc(/C=C/c3ccccc3)n2)n[nH]1 | T
NC(=O)c1n[nH]n2c1nc(=O)c1c3c(sc12)CCCC3 | F
CC(=O)Nc1cccc(-n2c(=O)n(C3CC3)c(=O)c3c(Nc4ccc(I)cc4F)n(C)c(=O)c(C)c32)c1 | F
CCOc1cc2ncc(C#N)c(Nc3ccc(OCc4ccccn4)c(Cl)c3)c2cc1NC(=O)/C=C/CN(C)C | F
CC[C@@H]1C(=O)N(C)c2cnc(Nc3ccc(C(=O)NC4CCC(N5CCN(CC6CC6)CC5)CC4)cc3OC)nc2N1C(C)C (some centres undefined) | T
CN1CCC(COc2cnc(-c3cccc(Cn4nc(-c5cccc(C#N)c5)ccc4=O)c3)nc2)CC1 | T
NS(=O)(=O)c1ccc(CCN2C(=O)/C(=C\c3ccc(Cl)cc3)C=C2c2ccc3ccccc3c2)cc1 | F
COc1cc2nc(Nc3cccc(Cl)c3)nc(N)c2cc1OC | F
C[C@]12O[C@H](C[C@]1(O)CO)n1c3ccccc3c3c4c(c5c6ccccc6n2c5c31)CNC4=O | T
COc1ccc(-c2nocc2-c2cc(OC)c(OC)c(OC)c2)cc1 | F

* * *

System: MDA-MB-435 melanoma
TEST METHOD NOTES: NCI-60 one-dose screen, 48 h (100 = growth as untreated, 0 = no growth, -100 = all killed)
CONDITION DETAILS: 10 µM unless noted
Compounds without any hit were thinned out: in the full panel of roughly 83,000, 20% have a hit.

COMPOUND | growth / %
CO[C@H](C(=O)N[C@@H](CCCCNC(=O)OCc1ccccc1)C(=O)OC(C)(C)C)[C@@H]1Cc2cc3cc(OC4CC(OC5CC(O)C(O)C(C)O5)C(O)C(C)O4)c(C)c(O)c3c(O)c2C(=O)[C@H]1OC1CC(OC2CC(OC3CC(C)(O)C(O)C(C)O3)C(O)C(C)O2)C(O)C(C)O1 (stereo partly specified) | -69.8
CCN(CCN(C)C)C(=O)CNCc1cc(C(N)=O)ccn1 | 110
C=CC(=O)Nc1cc(Nc2nccc(-c3cn(C)c4ccccc34)n2)c(OC)cc1N(C)CCN(C)C | -93.9
C=CCC(=O)N[C@H](/C=C/C(=O)O)Cc1ccc(-c2cc(Cl)cc(Cl)c2)cc1 | 103
COc1ccc(-n2c(=O)c3ccccc3n(Cc3ccc(C(=O)NO)cc3)c2=O)cc1 | -84.2
CCOC(=O)Sc1ncnc2nc[nH]c12 | 33.3
Cc1c(NC(=O)OC[C@@H]2COCCN2)cn2ncnc(Nc3ccc4c(cnn4Cc4cccc(F)c4)c3)c12 | 2.07
C=CC(=O)Nc1cccc(Oc2nc(Nc3ccc(N4CCN(C)CC4)cc3)nc3ccsc23)c1 | -93.3
COc1cc2ncnc(Oc3cccc(NC(=O)Nc4cc(C(C)(C)C(F)(F)F)on4)c3)c2cc1OC | 13.3
C[C@@H](Nc1cc(F)cc(F)c1)c1cc(C(=O)N(C)C)cc2c(=O)cc(N3CCOCC3)oc12 | 64.8
c1cc[n+](Cc2c3ccccc3cc3c2ccc2ccccc23)cc1 | 51

* * *

growth overview
Tested on: SF-295 CNS
TEST METHOD NOTES: NCI-60 one-dose screen, 48 h (100 = growth as untreated, 0 = no growth, -100 = all killed)
CONDITION DETAILS: 10 µM unless noted
The panel holds about 83,000 compounds, 20% with a hit somewhere; the sample as a whole holds those more often.
MEASURED PARAMETER: growth (%)

COMPOUND | STUDY SYSTEM | ENDPOINT RESULT
Nc1c2c(c(O)c3c1=C(CO)C=N3)=NCCS2=O (centres undefined) | SF-295 CNS | -95.8
CSC1=C(N)C(=O)c2[nH]cc(CO)c2C1=N | SF-295 CNS | -97.1
Nc1c(C(=O)c2ccccc2)sc2nc(-c3cccs3)cc(-c3cccs3)c12 | SF-295 CNS | 35
O=C(COc1ccc(/C=C2\Cc3ccc(Cl)cc3C2=O)cc1)Nc1nccs1 | SF-295 CNS | 113
CCN1CCN(Cc2ccc(Cc3ncc(F)c(-c4cc(F)c5nc(C)n(C(C)C)c5c4)n3)nc2)CC1 | SF-295 CNS | 64.9
C[C@@H](N)c1ccc(C(=O)Nc2ccnc3[nH]ccc23)cc1 | SF-295 CNS | 61.5
O=C(Nc1ccc(Nc2ncnc3sc4c(c23)CCOC4)cc1)Nc1ccc(Cl)c(C(F)(F)F)c1 | SF-295 CNS | 83.1
CN(N)c1nc2sc3c(c2c(=O)[nH]1)CCCC3 | SF-295 CNS | 93
ClCc1ccc(-c2ccc(Cn3cnc4nc(Cl)nc(Cl)c43)cc2)cc1 | SF-295 CNS | -62.5
Cn1cnc2c(F)c(Nc3ccc(Br)cc3F)c(C(=O)NOCCO)cc21 | SF-295 CNS | 76.3
CC12O[C@H](C[C@@H](OC(=O)CCC(=O)O)[C@H]1O)n1c3ccccc3c3c4c(c5c6ccccc6n2c5c31)C(=O)NC4=O | SF-295 CNS | 13.1
NC[C@@](O)(c1ccc(Cl)cc1)c1ccc(-c2cn[nH]c2)cc1 | SF-295 CNS | 28.6
CCCCCC(=O)OCc1ccc(Cl)c(Cl)c1 | SF-295 CNS | 108
Nc1cc2c(cc1Br)-c1c(C(=O)O)cccc1C2O (centres undefined) | SF-295 CNS | 118
N#Cc1cc2[nH]c3ccc(OC(F)(F)F)cc3c2oc1=O | SF-295 CNS | 80.3
CCN1CCN(CCCN(C[C@H]2Cc3ccccc3CN2)[C@H]2CCCc3cccnc32)CC1 | SF-295 CNS | 90.7
O=C(CNc1nc(-c2ccc(Cl)cc2)cs1)Nc1ccc(-c2nc3ccccc3s2)cc1 | SF-295 CNS | 98.6
COC(=O)[C@@H](NC(=O)[C@@H](OC)[C@@H]1Cc2cc3cc(OC4CC(OC5CC(O)C(O)C(C)O5)C(O)C(C)O4)c(C)c(O)c3c(O)c2C(=O)[C@H]1OC1CC(OC2CC(OC3CC(C)(O)C(O)C(C)O3)C(O)C(C)O2)C(O)C(C)O1)C(C)C (some centres undefined) | SF-295 CNS | -32.5
C[C@@H](NC(=O)c1ncnc(N)c1Cl)c1ncc(C(=O)Nc2cc(C(F)(F)F)c(Cl)cn2)s1 | SF-295 CNS | 90.2
